Entries annotated with measured log10 IC50
Target: Recombinant Cat D (Homo sapiens (Human))
Sequence (P07339 65-412): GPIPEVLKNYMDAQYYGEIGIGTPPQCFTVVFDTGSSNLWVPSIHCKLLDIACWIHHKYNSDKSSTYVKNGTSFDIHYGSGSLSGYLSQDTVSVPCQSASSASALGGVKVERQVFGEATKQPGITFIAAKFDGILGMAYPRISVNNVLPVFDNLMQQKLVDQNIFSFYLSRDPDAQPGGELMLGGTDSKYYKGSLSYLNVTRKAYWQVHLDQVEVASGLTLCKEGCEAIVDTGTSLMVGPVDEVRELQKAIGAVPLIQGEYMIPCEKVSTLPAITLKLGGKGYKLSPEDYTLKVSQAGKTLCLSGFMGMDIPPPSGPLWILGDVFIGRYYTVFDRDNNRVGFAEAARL
Assay: In vitro enzymatic Cathepsin D (Cat D) FRET assay
Type: biochemical
Settings: read-out: IC50 IP (μM) CatD
READOUT TYPE: log10 IC50 (log10 of the value in µM)

1) COC[C@]12C[C@H]1[C@@](C)(c1cc(NC(=O)c3cnc(OCc4cc(C)on4)cn3)cc(F)c1F)N=C(N)S2 3.01
2) C#C[C@H](C)Oc1cnc(C(=O)Nc2ccc(F)c([C@@]3(C)N=C(N)S[C@@]4(C(F)F)C[C@@H]34)c2)cn1 2.87
3) C[C@]1(c2cc(NC(=O)c3ccc(Cl)cn3)cnc2F)N=C(N)S[C@@]2(C(F)F)C[C@@H]12 3.24
4) C#CCOc1cnc(C(=O)Nc2cc(F)c(F)c([C@@]3(C)N=C(N)S[C@@]4(S(C)(=O)=O)C[C@H]43)c2)cn1 1.67
5) COC[C@]12C[C@H]1[C@@](C)(c1cc(NC(=O)c3cnc(OC4COC4)cn3)ccc1F)N=C(N)S2 3.31
6) C[C@]1(c2cc(Nc3nccc4cc(C#N)cnc34)cnc2F)N=C(N)S[C@@]2(CF)C[C@H]21 2.76
7) C#CCOc1cnc(C(=O)Nc2ccc(F)c([C@@]3(C)N=C(N)S[C@]4(CO)[C@H]3C4(F)F)c2)cn1 2.00
